// data source = patent US7273863B1

I'd be grateful if you could share measured IC50 for these entries.
Tested on: isogenic HIV-1 RT mutant virus V106A/Y181C
Experiment: HeLa cell assay (HIV-LTR β-galactosidase reporter)
Format: cell-based
Settings: Human immunodeficiency virus 1, HeLa, read-out: IC50 (nM) Range
Description: The HeLa cell assay was performed according to a modification of Kimpton J. and Emerman M., Detection of replication-competent and pseudotyped human immunodeficiency virus with a sensitive cell line on the basis of activation of an integrated β-galactosidase gene, J. Virol. 66:2232-2239 (1992), in which HIV-1 infection is detected by the activation of an HIV-LTR driven β-galactosidase reporter that is integrated into the genome of a CD4^+ HeLa cell line. […]

Request: What does the record list as IC50 for `Cc1cc(S(N)(=O)=O)ccc1NC(=O)COc1ccc(Cl)cc1C(=O)c1cc(F)cc(F)c1` ?
Response: 11 to 100 nM

Request: `Cc1cc2cn[nH]c2cc1NC(=O)COc1ccc(Cl)cc1C(=O)c1cccc(C#N)c1`
Response: 11 to 100 nM

Request: `Cc1cc(Cl)cc(C(=O)c2cc(Cl)ccc2OCC(=O)Nc2ccc(S(N)(=O)=O)cc2C)c1`
Response: 101 to 1000 nM

Request: `Cc1cc(C#N)cc(C(=O)c2cc(Cl)ccc2OCC(=O)Nc2ccc(OCCCN3CC=CC3)cc2C)c1`
Response: < 10 nM

###

READOUT_LABEL: melting point

Request: What does the record list as melting point for `O=C(COc1ccc(Cl)cc1C(=O)c1cc(F)cc(F)c1)Nc1ccc(Cl)nc1` ?
Response: 198 to 200 °C

Request: `COc1ccc(NC(=O)COc2ccc(Cl)cc2C(=O)c2cc(F)cc(F)c2)cn1`
Response: 185 to 187 °C

Request: `O=C(COc1ccc(Cl)cc1C(=O)c1cc(F)cc(F)c1)Nc1ccc2c(c1)CS(=O)(=O)C2`
Response: 197 to 199 °C

Request: `O=C(c1cc(F)cc(F)c1)c1cc(Cl)ccc1OCC(=O)N1CCc2ccccc21`
Response: 158 to 160 °C

###

Test system: isogenic HIV-1 RT mutant virus V106A/Y181C
Experiment: HeLa cell assay (HIV-LTR β-galactosidase reporter)
Assay type: cell-based
Settings: Human immunodeficiency virus 1, HeLa, read-out: IC50 (nM) Range
I'd be grateful if you could share measured IC50 for these entries.

Request: Hello, I am looking for reported IC50 with isogenic HIV-1 RT mutant virus V106A/Y181C for Cc1cc(C#N)cc(C(=O)c2cc(Cl)ccc2OCC(=O)Nc2ccc(S(N)(=O)=O)cc2C)c1 [Compound 564] . Could you help?
Response: < 10 nM

Request: Cc1cc2nc[nH]c2cc1NC(=O)COc1ccc(Cl)cc1C(=O)c1cc(F)cc(C(F)(F)F)c1 [Compound 239]
Response: 101 to 1000 nM

Request: Cc1cc(C#N)cc(C(=O)c2cc(Cl)ccc2OCC(=O)Nc2ccc(S(N)(=O)=O)nc2C)c1 [Compound 503]
Response: < 10 nM

Request: Cc1cc(C)cc(C(=O)c2cc(Cl)ccc2OCC(=O)Nc2ccc(S(N)(=O)=O)cc2C)c1 [Compound 478]
Response: < 10 nM

Request: Cc1cc(S(N)(=O)=O)ccc1NC(=O)COc1ccc(Cl)cc1C(=O)c1cc(F)cc(C#N)c1 [Compound 491]
Response: < 10 nM

Request: Cc1cc(S(N)(=O)=O)ccc1NC(=O)COc1ccc(Cl)cc1C(=O)c1cccc(C#N)c1 [Compound 448]
Response: 11 to 100 nM

Request: Cc1cc(S(N)(=O)=O)ccc1NC(=O)COc1ccc(Cl)cc1C(=O)c1cccc(C#N)n1 [Compound 637]
Response: < 10 nM

Request: Cc1cc(S(N)(=O)=O)ccc1NC(=O)COc1ccc(Cl)cc1C(=O)c1cc(Cl)cc(C#N)c1 [Compound 475]
Response: < 10 nM

Request: Cc1cc(OCCCS(N)(=O)=O)ccc1NC(=O)COc1ccc(Cl)cc1C(=O)c1cc(F)cc(C(F)(F)F)c1 [Compound 257]
Response: 11 to 100 nM

Request: Cc1cc(C#N)cc(C(=O)c2cc(Cl)ccc2OCC(=O)Nc2cnc(S(N)(=O)=O)cc2C)c1 [Compound 587]
Response: < 10 nM

Request: CCc1cc(C#N)cc(C(=O)c2cc(Cl)ccc2OCC(=O)Nc2ccc(S(N)(=O)=O)cc2C)c1 [Compound 498]
Response: < 10 nM

Request: Cc1cc(S(N)(=O)=O)ccc1NC(=O)COc1ccc(Cl)cc1C(=O)c1cc(F)cc(C(F)(F)F)c1 [Compound 78]
Response: 11 to 100 nM

###

I'd be grateful if you could share measured IC50 for these entries.
Test system: isogenic HIV-1 RT mutant virus K103N/V108I
Assay: HeLa cell assay (HIV-LTR β-galactosidase reporter)
Format: cell-based
Conditions: Human immunodeficiency virus 1, HeLa, read-out: IC50 (nM) Range

Request: What does the record list as IC50 for `Cc1cc(S(N)(=O)=O)ccc1NC(=O)COc1ccc(Cl)cc1C(=O)c1cccc(C#N)c1` ?
Response: < 10 nM

Request: `Cc1cc(OCCCS(N)(=O)=O)ccc1NC(=O)COc1ccc(Cl)cc1C(=O)c1cc(F)cc(C(F)(F)F)c1`
Response: < 10 nM

Request: `Cc1cc(C#N)cc(C(=O)c2cc(Cl)ccc2OCC(=O)Nc2ccc(S(N)(=O)=O)nc2C)c1`
Response: < 10 nM

Request: `CCc1cc(C#N)cc(C(=O)c2cc(Cl)ccc2OCC(=O)Nc2ccc(S(N)(=O)=O)cc2C)c1`
Response: < 10 nM

Request: `Cc1cc2nc[nH]c2cc1NC(=O)COc1ccc(Cl)cc1C(=O)c1cc(F)cc(C(F)(F)F)c1`
Response: < 10 nM

Request: `Cc1cc(C#N)cc(C(=O)c2cc(Cl)ccc2OCC(=O)Nc2ccc(S(N)(=O)=O)cc2C)c1`
Response: < 10 nM

Request: `Cc1cc(C#N)cc(C(=O)c2cc(Cl)ccc2OCC(=O)Nc2cnc(S(N)(=O)=O)cc2C)c1`
Response: < 10 nM

Request: `Cc1cc(S(N)(=O)=O)ccc1NC(=O)COc1ccc(Cl)cc1C(=O)c1cc(Cl)cc(C#N)c1`
Response: < 10 nM

###

I'd be grateful if you could share measured IC50 for these entries.
Tested on: isogenic HIV-1 RT mutant virus P225H
Test: HeLa cell assay (HIV-LTR β-galactosidase reporter)
Type: cell-based
Settings: Human immunodeficiency virus 1, HeLa, read-out: IC50 (nM) Range

Request: What does the record list as IC50 for `CCc1cc(C#N)cc(C(=O)c2cc(Cl)ccc2OCC(=O)Nc2ccc(S(N)(=O)=O)cc2C)c1` ?
Response: < 10 nM

Request: `Cc1cc(C)cc(C(=O)c2cc(Cl)ccc2OCC(=O)Nc2ccc(S(N)(=O)=O)cc2C)c1`
Response: < 10 nM

Request: `Cc1cc2nc[nH]c2cc1NC(=O)COc1ccc(Cl)cc1C(=O)c1cc(F)cc(C(F)(F)F)c1`
Response: < 10 nM

Request: `Cc1cc(S(N)(=O)=O)ccc1NC(=O)COc1ccc(Cl)cc1C(=O)c1cc(F)cc(F)c1`
Response: < 10 nM

Request: `Cc1cc(C#N)cc(C(=O)c2cc(Cl)ccc2OCC(=O)Nc2cnc(S(N)(=O)=O)cc2C)c1`
Response: < 10 nM

Request: `Cc1cc(S(N)(=O)=O)ccc1NC(=O)COc1ccc(Cl)cc1C(=O)c1cccc(C#N)n1`
Response: < 10 nM

Request: `Cc1cc(OCCCS(N)(=O)=O)ccc1NC(=O)COc1ccc(Cl)cc1C(=O)c1cc(F)cc(C(F)(F)F)c1`
Response: < 10 nM
